Values compiled from paper PMC6271079.

# System: MDCK cells
# experiment-summary: MTT toxicity (nephrotoxicity) evaluation, MDCK
# Type: cell-based
# cond: Canis lupus familiaris, MDCK, 72 h, Madin-Darby canine kidney cells
Give measured IC50 for each item. Keep answers brief.

Record Cc1nc(C)c(COC(=O)[C@]23CCC(C)(C)CC2C2=CCC4[C@@]5(C)CC[C@H](OC(=O)[C@@H](N)CC(C)C)C(C)(C)C5CC[C@@]4(C)[C@]2(C)CC3)nc1C (stereo partly drawn) , field IC50: > 25 µM

The measured IC50 associated with CNCC(=O)O[C@H]1CC[C@@]2(C)C(CC[C@]3(C)C2CC=C2C4CC(C)(C)CC[C@]4(C(=O)OCc4nc(C)c(C)nc4C)CC[C@]23C)C1(C)C (stereo partly drawn) reads 15.8 µM

Form: molecule = Cc1nc(C)c(COC(=O)[C@]23CCC(C)(C)CC2C2=CCC4[C@@]5(C)CC[C@H](O)C(C)(C)C5CC[C@@]4(C)[C@]2(C)CC3)nc1C (stereo partly drawn) ; IC50 = > 25 µM

Cc1nc(C)c(COC(=O)[C@]23CCC(C)(C)CC2C2=CCC4[C@@]5(C)CC[C@H](OC(=O)[C@@H](N)CO)C(C)(C)C5CC[C@@]4(C)[C@]2(C)CC3)nc1C (stereo partly drawn) yielded IC50 of 3.12 µM

The recorded IC50 for Cc1nc(C)c(COC(=O)[C@]23CCC(C)(C)CC2C2=CCC4[C@@]5(C)CC[C@H](OC(=O)[C@@H](N)CCCCN)C(C)(C)C5CC[C@@]4(C)[C@]2(C)CC3)nc1C (stereo partly drawn) is 2.31 µM

molecule Cc1nc(C)c(COC(=O)[C@]23CCC(C)(C)CC2C2=CCC4[C@@]5(C)CC[C@H](OC(=O)[C@@H]6CCCN6)C(C)(C)C5CC[C@@]4(C)[C@]2(C)CC3)nc1C (stereo partly drawn) , IC50 observed: 5.03 µM

Memo: Cc1nc(C)c(COC(=O)[C@]23CCC(C)(C)CC2C2=CCC4[C@@]5(C)CC[C@H](OC(=O)[C@@H](N)C(C)C)C(C)(C)C5CC[C@@]4(C)[C@]2(C)CC3)nc1C (stereo partly drawn) , reported IC50: 9.79 µM

Recorded IC50 (molecule Cc1nc(C)c(COC(=O)[C@]23CCC(C)(C)CC2C2=CCC4[C@@]5(C)CC[C@H](OC(=O)[C@H](C)N)C(C)(C)C5CC[C@@]4(C)[C@]2(C)CC3)nc1C (stereo partly drawn) ): 5.12 µM

# molecule Cc1nc(C)c(COC(=O)[C@]23CCC(C)(C)CC2C2=CCC4[C@@]5(C)CC[C@H](OC(=O)[C@@H](N)Cc6ccccc6)C(C)(C)C5CC[C@@]4(C)[C@]2(C)CC3)nc1C (stereo partly drawn) ; its IC50 = 8.12 µM

So for Cc1nc(C)c(COC(=O)[C@]23CCC(C)(C)CC2C2=CCC4[C@@]5(C)CC[C@H](OC(=O)[C@@H](N)Cc6c[nH]c7ccccc67)C(C)(C)C5CC[C@@]4(C)[C@]2(C)CC3)nc1C (stereo partly drawn) , the logged IC50 turned out to be 10.8 µM

Given item Cc1nc(C)c(COC(=O)[C@]23CCC(C)(C)CC2C2=CCC4[C@@]5(C)CC[C@H](OC(=O)CN)C(C)(C)C5CC[C@@]4(C)[C@]2(C)CC3)nc1C (stereo partly drawn) , the value recorded as its IC50 is 4.88 µM

Entry CC[C@H](C)[C@H](N)C(=O)O[C@H]1CC[C@@]2(C)C(CC[C@]3(C)C2CC=C2C4CC(C)(C)CC[C@]4(C(=O)OCc4nc(C)c(C)nc4C)CC[C@]23C)C1(C)C (stereo partly drawn) — recorded IC50 = > 25 µM
